- measured_target: human GLP-1R (Homo sapiens, UniProt P43220, G168S)
- Sequence (P43220 24-463 G168S limits assumed): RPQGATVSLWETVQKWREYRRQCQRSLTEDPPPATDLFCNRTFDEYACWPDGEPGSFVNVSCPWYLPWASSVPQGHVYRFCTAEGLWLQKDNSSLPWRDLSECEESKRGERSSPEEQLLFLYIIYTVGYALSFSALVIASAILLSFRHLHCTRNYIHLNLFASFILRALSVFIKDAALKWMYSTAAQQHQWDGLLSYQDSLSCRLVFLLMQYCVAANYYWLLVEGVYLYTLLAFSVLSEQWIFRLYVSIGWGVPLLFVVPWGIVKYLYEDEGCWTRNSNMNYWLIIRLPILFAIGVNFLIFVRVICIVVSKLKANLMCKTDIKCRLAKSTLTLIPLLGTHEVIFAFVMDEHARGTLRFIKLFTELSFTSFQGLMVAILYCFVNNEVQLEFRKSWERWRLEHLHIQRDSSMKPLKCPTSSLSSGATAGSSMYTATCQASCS
- protocol_text: CHO GLP-1R Clone H6 - Assay 1 (HTRF cAMP agonist assay)
- run_conditions: CHO GLP-1R Clone H6, cAMP HTRF; geometric mean
pEC50: −log10 of the molar value.
Please note: 1.0 applies when pEC50 is 7 or greater, and 0.0 applies otherwise.

COCCn1c(C2CC23CCN(c2cccc4c2OC(C)(c2ccc(Cl)cc2F)O4)CC3)nc2ccc(C(=O)O)cc21 (single isomer, unassigned) [Example 25] : 0.0
COCCn1c(CN2CCC(c3cccc4c3OC(C)(c3ccc(C#N)cn3)O4)CC2)nc2ccc(C(=O)O)cc21 (stereo not drawn) [Example 93] : 0.0
COCCn1c(CN2CCC(c3cccc4c3OC(C)(c3ccccc3Cl)O4)CC2)nc2ccc(C(=O)O)cc21 (stereo not drawn) : 1.0
Cn1cnc(Cn2c(CN3CCC(c4cccc5c4OC(C)(c4ccc(Cl)cc4F)O5)CC3)nc3ccc(C(=O)O)cc32)c1 (stereo not drawn) : 1.0

Reported pEC50 reaches at least 7 for COCCn1c(CN2CCN(c3cccc4c3OC(c3ccc(Cl)cc3F)O4)CC2)nc2ccc(C(=O)O)cc21 (single isomer, unassigned) [Example 1] ?
0.0

Reported pEC50 reaches at least 7 for COCCn1c(CN2CCC(c3cccc4c3OC(C)(c3cccc(C#N)c3)O4)CC2)nc2ccc(C(=O)O)cc21 (stereo not drawn) ?
0.0

Reported pEC50 reaches at least 7 for COCCn1c(CN2CCC(c3cccc4c3OC(C)(c3cccc(C)c3)O4)CC2)nc2ccc(C(=O)O)cc21 (stereo not drawn) ?
0.0

Reported pEC50 reaches at least 7 for Cn1cnnc1Cn1c(CN2CCC(c3cccc4c3OC(C)(c3ccc(Cl)cc3F)O4)CC2)nc2ccc(C(=O)O)cc21 (stereo not drawn) ?
1.0

Reported pEC50 reaches at least 7 for CC1(c2ccc(Cl)cc2F)Oc2cccc(C3CCN(Cc4nc5ccc(C(=O)O)cc5n4CC4(O)CCC4)CC3)c2O1 (stereo not drawn) ?
1.0

Reported pEC50 reaches at least 7 for CC1(c2ccc(Cl)cc2F)Oc2cccc(C3CCN(Cc4nc5ccc(C(=O)O)cc5n4Cc4ccccn4)CC3)c2O1 (stereo not drawn) ?
1.0

Reported pEC50 reaches at least 7 for CC1(c2ccc(Cl)cc2F)Oc2cccc(C3CCN(Cc4nc5ccc(C(=O)O)cc5n4CCn4cccn4)CC3)c2O1 (stereo not drawn) ?
1.0

Reported pEC50 reaches at least 7 for COCCn1c(CN2CCN(c3cccc4c3OC(c3ccccc3)O4)CC2)nc2ccc(C(=O)O)cc21 (stereo not drawn) [Example 22] ?
0.0

====

- measured_target: human GLP-1R (Homo sapiens (Human), UniProt P43220, L260F)
- Sequence (P43220 24-463 L260F): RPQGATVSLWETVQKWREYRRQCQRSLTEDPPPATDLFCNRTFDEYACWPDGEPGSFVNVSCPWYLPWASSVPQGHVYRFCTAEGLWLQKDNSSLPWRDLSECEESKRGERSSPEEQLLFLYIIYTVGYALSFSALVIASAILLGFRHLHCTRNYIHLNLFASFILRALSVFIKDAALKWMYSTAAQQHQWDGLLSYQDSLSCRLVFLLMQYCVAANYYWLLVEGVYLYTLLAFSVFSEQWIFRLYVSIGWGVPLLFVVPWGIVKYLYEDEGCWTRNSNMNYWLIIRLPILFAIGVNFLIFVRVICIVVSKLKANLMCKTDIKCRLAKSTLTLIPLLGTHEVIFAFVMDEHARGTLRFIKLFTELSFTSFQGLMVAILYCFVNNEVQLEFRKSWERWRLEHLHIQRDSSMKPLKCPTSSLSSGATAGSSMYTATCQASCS
- protocol_text: CHO GLP-1R Clone C6 - Assay 2 (HTRF cAMP agonist assay, low receptor density)
- run_conditions: read-out: Assay 2 Emax (%), CHO GLP-1R Clone C6 (low receptor density); arithmetic mean, relative to saturating GLP-1 (1 μM)
property_name: Emax (%)
Quick note: give the figure in %, leave out the unit.

// known answers, use as guide
CC1(c2ccc(Cl)cc2F)Oc2cccc(C3CCN(Cc4nc5ccc(C(=O)O)cc5n4CC4(O)CCC4)CC3)c2O1 (stereo not drawn) [Example 72] : 80
CC1(c2ccc(Cl)cc2F)Oc2cccc(C3CCN(Cc4nc5ccc(C(=O)O)cc5n4CC4CCOC4)CC3)c2O1 (stereo not drawn) [Example 56] : 81

# ---- query compound ----
Form: item CC1(c2ccc(Cl)cc2F)Oc2cccc(C3CCN(Cc4nc5ccc(C(=O)O)cc5n4C[C@H]4CCCO4)CC3)c2O1 (stereo partly drawn) [Example 64] ; test system human GLP-1R (Homo sapiens (Human), UniProt P43220, L260F); Emax: 80
